- test-details: Activators of T cell receptors: Hit Validation;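 also: cytokine measured is secreted IL-2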
- protocol-conditions: primary human leukocytes, cytokine release by HTRF, 48 h, TCR-stimulated with anti-CD3 beads; series mostly up to 46.1 µM
Records with an inconclusive call do not appear. Activity calls are given as the source filed them. Calls follow the shape of the dose curve; as a rule, active = well fitted activation curve with a large enough effect; inconclusive = small, poorly fitted or top-dose-only effect; inactive = no such curve, though single readings can be large or run the other way.
Possible outcomes: true for active, false for inactive

>  <compound>
O=C1/C(=C/c2cccnc2)SC(=S)N1Cc1ccco1

>  <class-name>
false

$$$$
>  <compound>
COc1cc(OC)cc(C(=O)Nc2ccc(S(=O)(=O)N3CCOCC3)cc2)c1

>  <class-name>
false

$$$$
>  <compound>
CC(=O)Nc1ccc(C(=O)OCC(=O)N(c2ccccc2)C2CCS(=O)(=O)C2)cc1 (stereo not drawn)

>  <class-name>
false

$$$$
>  <compound>
O=C(CCOc1ccccc1)Nc1ccc(S(=O)(=O)Nc2ncccn2)cc1

>  <class-name>
false

$$$$
>  <compound>
CC1(NC(=O)CCNC(=O)c2ccc(C(C)(C)C)cc2)CCS(=O)(=O)C1 (stereo not drawn)

>  <class-name>
false

$$$$
>  <compound>
Cc1ccc(NC2=CC(=O)C(=O)c3ccccc32)c(C)c1

>  <class-name>
false

$$$$
>  <compound>
O=C(O)c1ccc(OS(=O)(=O)c2cccc(C(F)(F)F)c2)cc1

>  <class-name>
false

$$$$
>  <compound>
O=C(O)c1ccccc1-c1c2cc(I)c(=O)c(I)c-2oc2c(I)c(O)c(I)cc12

>  <class-name>
true

$$$$
>  <compound>
CCN(CC)S(=O)(=O)c1ccc(N2CCN(C)CC2)c(NC(=O)CN2C(=O)NC3(CCCCC3)C2=O)c1

>  <class-name>
false

$$$$
>  <compound>
COc1cc(C(=O)Nc2ccn(C)n2)ccc1OC(F)F

>  <class-name>
false

$$$$
>  <compound>
CCC(=C/c1sc2ccc3ccccc3c2[n+]1C)/C=C1\Sc2ccc3ccccc3c2N1C

>  <class-name>
true

$$$$
>  <compound>
Cc1ncc[nH]1

>  <class-name>
false

$$$$
>  <compound>
CN(C)c1cccc(C(=O)N(Cc2ccccc2)Cc2ccccc2)c1

>  <class-name>
false

$$$$
>  <compound>
COc1ccc(Cl)cc1NC(=O)CN1C(=O)NC(C)(Cc2ccc(OC)c(OC)c2)C1=O (stereo not drawn)

>  <class-name>
false

$$$$
>  <compound>
CCCCCCC[C@@H](C/C=C/CCC(=O)N(C)C/C(=C/Cl)C/C(=C\C(=O)N1CC(OC)=CC1=O)OC)OC

>  <class-name>
true

$$$$
>  <compound>
CC(=O)Nc1ccc(NC(=O)C(C)OC(=O)c2c(NC(C)=O)sc(C)c2C)cc1 (stereo not drawn)

>  <class-name>
false

$$$$
>  <compound>
CCOC(=O)c1c(C)[nH]c(C(=O)OCC(=O)Nc2ccccc2)c1C

>  <class-name>
false

$$$$
>  <compound>
CC1CCN(CCNC(=O)C2CCN(S(=O)(=O)c3cccc4nsnc34)CC2)CC1

>  <class-name>
false

$$$$

====

- test-details: Activators of T cell receptors: Hit Validation;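 also: cytokine measured is secreted IL-2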; also: potency is read from the fitted curve at half-maximal effect
- protocol-conditions: primary human leukocytes, cytokine release by HTRF, 48 h, TCR-stimulated with anti-CD3 beads; series mostly up to 46.1 µM
Results filed as inconclusive are left out. Active and inactive are the calls of the source. Calls follow the shape of the dose curve; as a rule, active = well fitted activation curve with a large enough effect; inconclusive = small, poorly fitted or top-dose-only effect; inactive = no such curve, though single readings can be large or run the other way.

>  <molecule>
COc1cc(N=c2ssnc2Cl)c(OC)cc1Cl

>  <Potency>
inactive

$$$$
>  <molecule>
CCN(CC)c1ccc2nc3ccccc3[n+](CC)c2c1

>  <Potency>
4.99 µM (active)

$$$$
>  <molecule>
COc1ccc(CNC(=O)C[C@H]2C[C@H](C(=O)N3CCCCC3)[C@@]3(C)c4[nH]c5cc(-c6ccco6)ccc5c4CCN3C2=O)cc1OC

>  <Potency>
inactive

$$$$
>  <molecule>
CCC(/C=C1\Sc2ccc(OC)cc2N1CCO)=C\c1sc2ccc(OC)cc2[n+]1CCO

>  <Potency>
9.96 µM (active)

$$$$
>  <molecule>
N#Cc1ccc(CN2CCN(C(=O)c3ccc(S(=O)(=O)NCc4ccco4)cc3)CC2)cc1

>  <Potency>
inactive

$$$$
>  <molecule>
COc1ccc(C(=O)COC(=O)c2sc(C)nc2C)cc1OC

>  <Potency>
inactive

$$$$
>  <molecule>
Cn1c(=O)c2c(ncn2CC(O)CO)n(C)c1=O (stereo unspecified)

>  <Potency>
inactive

$$$$
>  <molecule>
CN(C)c1ccc(NC(=O)COC(=O)CNC(=O)c2cccs2)cc1

>  <Potency>
inactive

$$$$
>  <molecule>
CCCn1c(-c2ccccc2)nc2c(=O)n(C)c(=O)[nH]c21

>  <Potency>
inactive

$$$$
>  <molecule>
O=C(Nc1nnc(-c2ccccc2)s1)c1cccc(S(=O)(=O)N2CCOCC2)c1

>  <Potency>
inactive

$$$$
>  <molecule>
Cc1ccc(C(=O)NNC(=O)COC(=O)COc2ccccc2C#N)cc1

>  <Potency>
inactive

$$$$
>  <molecule>
CN=c1nc(-c2ccccc2)n(-c2ccccc2)s1

>  <Potency>
inactive

$$$$
>  <molecule>
CN(CC(=O)NCC(=O)Nc1ccc(F)cc1)C1CCS(=O)(=O)C1 (stereo unspecified)

>  <Potency>
inactive

$$$$
>  <molecule>
COc1ccc(C(=O)c2sc3nc(C)cc(-c4cccs4)c3c2N)cc1OC

>  <Potency>
inactive

$$$$
>  <molecule>
COc1cc(C(=O)OCCCN2CCCN(CCCOC(=O)c3cc(OC)c(OC)c(OC)c3)CC2)cc(OC)c1OC

>  <Potency>
inactive

$$$$
>  <molecule>
O=S(=O)(c1ccc(=S)[nH]c1)N1CCCCCC1

>  <Potency>
inactive

$$$$

====

- test-details: Activators of T cell receptors: Hit Validation;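 also: cytokine measured is secreted IL-2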
- protocol-conditions: primary human leukocytes, cytokine release by HTRF, 48 h, TCR-stimulated with anti-CD3 beads; series mostly up to 46.1 µM
Inconclusive results are not listed. Active and inactive are the calls of the source. Calls come from the whole dose curve; as a rule, active = well fitted activation curve with a large enough effect; inconclusive = small, poorly fitted or top-dose-only effect; inactive = no such curve, though single readings can be large or run the other way.

>  <compound>
CCOc1ccc(-c2nnc(-c3snc(-c4ccc(F)cc4)c3N=CN(C)C)o2)cc1

>  <outcome>
inactive

$$$$
>  <compound>
CCC(=O)N1CCN(c2ccc(NC(=O)c3ccc([N+](=O)[O-])o3)cc2)CC1

>  <outcome>
inactive

$$$$
>  <compound>
COc1ccccc1N1CCN(CCCC(=O)c2ccc(F)cc2)CC1

>  <outcome>
inactive

$$$$
>  <compound>
CSCc1c(C(=O)OCC(=O)NC2CCCCC2)oc2ccccc12

>  <outcome>
inactive

$$$$
>  <compound>
O=C(NCCCNCc1ccccc1)/C(=N\O)c1ccccc1

>  <outcome>
inactive

$$$$
>  <compound>
CC(NC(=S)NCCN1CCOCC1)C12CC3CC(CC(C3)C1)C2 (centres undefined)

>  <outcome>
inactive

$$$$
>  <compound>
O=C(Cn1ncc(Cl)c(Cl)c1=O)NCC1CCCCC1

>  <outcome>
inactive

$$$$
>  <compound>
COc1cccc(-n2c(SCC(=O)NC3CCS(=O)(=O)C3)nc3ccccc3c2=O)c1 (centres undefined)

>  <outcome>
inactive

$$$$
>  <compound>
O=C1N=C(O)CN1/N=C/c1ccc(-c2ccc([N+](=O)[O-])cc2)o1

>  <outcome>
inactive

$$$$

Hey, just so you know, these numbers are from PubChem BioAssay AID624298.
